Molecular target: T1, human prolactin receptor (PRLR) (human, UniProt P16471 25-622)
T1 sequence: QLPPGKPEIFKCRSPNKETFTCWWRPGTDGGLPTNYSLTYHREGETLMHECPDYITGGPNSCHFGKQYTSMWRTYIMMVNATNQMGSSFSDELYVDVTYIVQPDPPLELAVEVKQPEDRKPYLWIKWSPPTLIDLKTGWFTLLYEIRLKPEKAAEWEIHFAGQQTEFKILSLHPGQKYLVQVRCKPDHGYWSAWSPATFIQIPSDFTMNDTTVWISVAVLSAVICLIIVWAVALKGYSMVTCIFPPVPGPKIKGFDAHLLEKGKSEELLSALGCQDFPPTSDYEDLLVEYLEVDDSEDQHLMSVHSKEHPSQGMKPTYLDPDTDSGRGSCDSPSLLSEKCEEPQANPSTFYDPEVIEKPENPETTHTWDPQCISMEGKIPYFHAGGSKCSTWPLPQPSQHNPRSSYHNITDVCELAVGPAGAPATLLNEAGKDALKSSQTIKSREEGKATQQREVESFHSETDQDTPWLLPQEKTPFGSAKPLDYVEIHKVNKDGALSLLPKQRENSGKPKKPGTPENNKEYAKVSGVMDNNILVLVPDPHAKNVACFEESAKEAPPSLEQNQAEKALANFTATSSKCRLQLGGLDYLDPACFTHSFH
Experiment: cell-based or functional assay
Each entry below lists one item and its recorded % Kill, T47D cells value.
Only the number, expressed in %, is required.

BINDER	UNIT ABBREVIATION	% Kill, T47D cells
H1H6958N2-DM1 (antibody, human IgG1, V domains shown, DM1 conjugated through SMCC linker; attachment residues not stated) VH: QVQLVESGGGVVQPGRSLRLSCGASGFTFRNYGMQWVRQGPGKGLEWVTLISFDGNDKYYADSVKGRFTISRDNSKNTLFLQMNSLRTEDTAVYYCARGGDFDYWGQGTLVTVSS VL: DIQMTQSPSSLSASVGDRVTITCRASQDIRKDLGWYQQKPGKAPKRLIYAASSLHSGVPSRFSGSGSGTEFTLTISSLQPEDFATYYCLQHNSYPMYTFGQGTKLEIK	%	100
H1H6765P-mc-VC-PAB-MMAE (antibody, human IgG1, V domains shown, MMAE conjugated through cleavable mc-vc-PAB linker; attachment residues not stated) VH: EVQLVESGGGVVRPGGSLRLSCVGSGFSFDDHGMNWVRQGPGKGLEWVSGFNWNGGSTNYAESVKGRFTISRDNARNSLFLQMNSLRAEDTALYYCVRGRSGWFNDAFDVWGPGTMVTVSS VL: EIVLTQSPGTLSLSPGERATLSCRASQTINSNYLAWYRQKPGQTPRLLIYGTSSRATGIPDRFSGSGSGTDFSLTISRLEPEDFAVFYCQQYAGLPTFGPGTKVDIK	%	90

# ---- query binder ----
Lookup: Looking for the measured % Kill, T47D cells of H1H6958N2-mc-VC-PAB-MMAE (antibody, human IgG1, V domains shown, MMAE conjugated through cleavable mc-vc-PAB linker; attachment residues not stated) VH: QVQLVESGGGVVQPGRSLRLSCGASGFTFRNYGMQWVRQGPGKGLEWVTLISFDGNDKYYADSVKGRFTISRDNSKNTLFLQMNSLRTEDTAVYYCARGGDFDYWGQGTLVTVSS VL: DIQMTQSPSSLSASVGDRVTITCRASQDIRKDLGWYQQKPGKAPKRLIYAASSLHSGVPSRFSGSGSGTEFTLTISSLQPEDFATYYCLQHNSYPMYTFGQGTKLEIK , can you help?
Found: 90
